Item-by-item account of inhibition
Target: PhzR (Pseudomonas aeruginosa) (UniProt Q9RMS5)
Sequence (whole entry): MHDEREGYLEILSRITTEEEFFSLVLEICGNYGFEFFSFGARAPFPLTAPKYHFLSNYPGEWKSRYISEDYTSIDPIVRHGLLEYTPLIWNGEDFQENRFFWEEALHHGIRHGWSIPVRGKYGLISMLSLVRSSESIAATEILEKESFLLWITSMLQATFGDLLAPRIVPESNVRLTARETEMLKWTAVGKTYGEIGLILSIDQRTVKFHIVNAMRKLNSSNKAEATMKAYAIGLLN
Experiment: Antagonist activity at Pseudomonas aeruginosa QscR expressed in Escherichia coli assessed as inhibition of dodecanoyl homoserine lactone induced production of beta-galactosidase at 5 uM
Assay type: functional
Give just the number in %; leave the unit off.

Lookup: Endpoint output: inhibition of O=C(N[C@H]1CCOC1=O)c1ccc(Br)cc1 . Value?
Found: 78

----------
biological target: (Pseudomonas aeruginosa) (UniProt Q9RMS5); test: Agonist activity at Pseudomonas aeruginosa QscR expressed in Escherichia coli assessed as production of beta-galactosidase at 5 uM relative to dodecanoyl homoserine lactone; type: functional
// boundary case: Activity equal to 60% maps to NO; strictly smaller maps to YES

Lookup: Below 60% on Activity? Entry CCCCCCCCCC(=O)N[C@H]1CCOC1=O
Found: NO

Lookup: Would you mind doing O=C(CCc1ccc(Br)cc1)N[C@H]1CCOC1=O as well?
Found: NO

Lookup: Would you mind doing CCCCCCCCCCCC(=O)CC(=O)N[C@H]1CCOC1=O as well?
Found: NO

Lookup: Would you mind doing CCCCCCCCCC(=O)CC(=O)N[C@H]1CCOC1=O as well?
Found: NO

Lookup: Would you mind doing CCCc1ccc(C(=O)CCC(=O)N[C@H]2CCOC2=O)cc1 as well?
Found: YES

Lookup: Would you mind doing CCCCCC(=O)CC(=O)N[C@H]1CCOC1=O as well?
Found: NO

Lookup: Would you mind doing CCCCCCCCCCCS(=O)(=O)N[C@H]1CCOC1=O as well?
Found: YES

----------
biological target: QscR (Pseudomonas aeruginosa); assay: Antagonist activity at Pseudomonas aeruginosa QscR expressed in Escherichia coli assessed as inhibition of dodecanoyl homoserine lactone induced production of beta-galactosidase
metric_name: pIC50
pIC50 (log units): -log10 of the concentration in mol/L.

Here is how some compounds turned out for pIC50.
CCOc1ccc(CC(=O)N[C@H]2CCOC2=O)cc1 ... 6.80
CC(C)(C)OC(=O)NCc1ccc(C(=O)N[C@H]2CCOC2=O)cc1 ... 6.70
O=C(Cc1ccc(-c2ccccc2)cc1)N[C@H]1CCOC1=O ... 7.52

# input for lookup
Lookup: Endpoint output: pIC50 of O=C(N[C@H]1CCOC1=O)c1ccc(Br)cc1 . Value?
Found: 6.74

----------
target: PhzR (Pseudomonas aeruginosa); test: Inhibition of binding of Pseudomonas aeruginosa QscR to DNA at 200 uM in presence of 3-oxo-dodecanoyl -L-homoserine lactone by electromobility shift assay
metric_name: inhibition (%)
Give just the number in %; leave the unit off.

CC(C)(C)OC(=O)NCc1ccc(C(=O)N[C@H]2CCOC2=O)cc1 ... 59
CCOc1ccc(CC(=O)N[C@H]2CCOC2=O)cc1 ... 82
O=C(Cc1ccc(-c2ccccc2)cc1)N[C@H]1CCOC1=O ... 100
CCCCCCCCc1ccc(C(=O)N[C@H]2CCOC2=O)cc1 ... 100

# input for lookup
Lookup: Endpoint output: inhibition of O=C(N[C@H]1CCOC1=O)c1ccc(Br)cc1 . Value?
Found: 71

Hello, the source for this data is ChEMBL document CHEMBL1142409, in case you need it.
